- assayed_target: human CRTH2 (Homo sapiens)
- Sequence (Q9Y5Y4 whole entry): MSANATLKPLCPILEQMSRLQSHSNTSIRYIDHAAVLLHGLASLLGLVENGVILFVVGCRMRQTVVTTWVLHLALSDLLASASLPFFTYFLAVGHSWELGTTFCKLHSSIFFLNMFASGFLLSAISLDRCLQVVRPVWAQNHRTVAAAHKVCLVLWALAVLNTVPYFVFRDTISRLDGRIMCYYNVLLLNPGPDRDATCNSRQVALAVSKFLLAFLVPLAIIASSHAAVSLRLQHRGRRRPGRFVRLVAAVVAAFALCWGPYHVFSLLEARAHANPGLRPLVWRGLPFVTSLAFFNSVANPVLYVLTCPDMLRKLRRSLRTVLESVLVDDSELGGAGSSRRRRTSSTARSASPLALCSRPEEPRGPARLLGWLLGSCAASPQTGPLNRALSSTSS
- test: Human CRTH2 Receptor Binding Assay (whole cell, [3H]ramatroban)
- Parameters: expressed in transfected cells; host or cells: CHO-K1
- protocol_conditions: CHO-K1 cells expressing human CRTH2 and G-alpha16; 20 nM [3H]ramatroban; 1 hour, room temperature
Task for the reader: assign each of the following compounds its reported log10 of IC50.
The common logarithm of IC50 in nM is what is listed.

NS(=O)(=O)c1ccc(C(=O)c2cc(CC(=O)O)cc3ccccc23)cc1 [Example 1-3]
2.53
CCc1cc(C(=O)c2cc(CC(=O)O)cc3ccc(F)cc23)ccc1S(C)(=O)=O [Example 2-19]
0.36
Cc1c(CC(=O)O)cc2ccc(F)cc2c1Cc1cccc(-c2nnnn2C)c1 [Example 10-7]
0.83
CS(=O)(=O)c1ccc(C(F)(F)c2cc(CC(=O)O)cc3ccc(F)cc23)cc1 [Example 17-2]
0.49
CS(=O)(=O)c1ccc(Cc2cc(CC(=O)O)cc3ccc(F)cc23)cc1C(F)(F)F [Example 8-6]
0.73

The following compounds each have a reported value; give each one's log10 of IC50.
1. CS(=O)(=O)c1ccc(C(=O)c2cc(CC(=O)O)cc3cc4c(cc23)OCO4)cc1 [Example 2-7]
2. CS(=O)(=O)c1cc(C(=O)c2cc(CC(=O)O)cc3ccc(F)cc23)ccc1F [Example 2-31]
3. Cc1cc(S(=O)(=O)N2CCOCC2)ccc1C(=O)c1cc(CC(=O)O)cc2ccc(F)cc12 [Example 2-23]

// result
[2.42, 2.01, 0.57]
